- Procedure summary: physchem
- Format: physicochemical
- Experimental parameters: kinetic from dmso stock; kinetic solubility in water; read-out: Kin. Sol
Measured parameter: solubility kinetic (µM)

                                smiles_repr  measurement_unit  endpoint_value
0  Fc1c(F)c(F)c(-c2nc3c(N4CCOCC4)ncnc3o2)c(F)c1F                µM            13.6

----------
- Type: in vitro ADME, mouse
- Experimental parameters: intrinsic clearance (Cli), CD1 mouse liver microsomes; Tables 1-4
Measured parameter: Mouse micro Cl (mLmin/g)

In [3]: df
Out[3]:
                                   compound  measurement_unit  value_relation_sign  endpoint_value
0  CCOC(=O)c1nc(C)oc1NC(=O)c1cc(F)c(F)c(F)c1 [Compound 26]           mLmin/g                    =             7.1
1  CN(C)c1ncnc2sc(-c3c(F)c(F)c(F)c(F)c3F)nc12.Cl [Compound 1]           mLmin/g                    >              50
2  Fc1c(F)c(F)c(-c2nc3c(N4CCOCC4)ncnc3o2)c(F)c1F [Compound 10]           mLmin/g                    =              44
3  COC(=O)c1nn(C)cc1NC(=O)c1c(F)c(F)c(F)c(F)c1F [Compound 19]           mLmin/g                    =              23
4  CCOC(=O)c1nc(C)oc1NC(=O)c1c(F)c(F)cc(F)c1F [Compound 28]           mLmin/g                    <             0.5
5  CCOC(=O)c1c(NC(=O)c2c(F)c(F)c(F)c(F)c2F)ncn1C [Compound 21]           mLmin/g                    =             8.6
